- System: MS2 coat protein
- experimental-details: apparent KD of MS2 coat protein; designed switch direction (-1 OFF switch, 1 ON switch): 1; higher = weaker reporter binding
- assay-setup: input ligand: FMN 200 uM
property-measured: apparent KD of MS2 coat protein

Task: # input sequence: AUAAAACAUGAGGAUCACCCAUGUAAAAAUAUGGGAGGAUAUGCGAAAUAAAAUAAAUAAGCAGAAGGCCUAAAAA [SS! MT 19] (Eterna round: R96, puzzle: Same State 1) ; wanted: its apparent KD of MS2 coat protein
Result: 21.1 nM

Task: # input sequence: AUAUGAGGAGCAGGAUAUGCGGAGAAGAAAGAAGCAGAAGGGCUCAUGGGACAACAUGAGGAUCACCCAUGUUCUCCGCGAUGA [AK SSNG1-V2-3.2] (Eterna round: R96, puzzle: Same State NG 1) ; wanted: its apparent KD of MS2 coat protein
Result: 80.2 nM

Task: # input sequence: AACCGCGCAGAUGCGCGACAUGAGGAUCACCCAUGUGGCACACAGGAUAUCCUGAACAGCUAUUAGGAGAAGGGUGAAGGCCUC [Oredceti] (Eterna round: R96, puzzle: Same State NG 3) ; wanted: its apparent KD of MS2 coat protein
Result: 339 nM

Task: # input sequence: UCAAUCAUGUAAGGAUAUGCAGCCGAAACGGCUGCAGAAGGUACUAUAAUUACAUGAGGAUCACCCAUGUUAUAAAAUAAAUAU [Mat - Same State NG 1 - JL mod - D80] (Eterna round: R96, puzzle: Same State NG 1) ; wanted: its apparent KD of MS2 coat protein
Result: 40.9 nM

Task: # input sequence: GUACAUAUCAGAGGAUAUCACGUCGAAUAGACGUGAGAAGGCUGAUCACACAUGAAUAUUAAUACAUGAGGAUCACCCAUGUAC [SSNG1/13-A1] (Eterna round: R96, puzzle: Same State NG 1) ; wanted: its apparent KD of MS2 coat protein
Result: 16.9 nM

Task: # input sequence: AGGCUCAGACGAGGAUAUGGUCAUGGCGCUUCGGCGCAUACAUGAGGAUCACCCAUGUAGGGUGAUCAGAAGGCGUCUGAGCCA [SSNG2/9-A1] (Eterna round: R96, puzzle: Same State NG 2) ; wanted: its apparent KD of MS2 coat protein
Result: 76.8 nM

Task: # input sequence: CUCCCUUGGGUAGGAUAUCUAGGAUAUGGGAAAGACUAAGUCUGUAGGUCACCUAACCCAGAUGGAGAGAAGGACCCAACACUC [pwkr ssNG2 2FMN + F9.39] (Eterna round: R96, puzzle: Same State NG 2) ; wanted: its apparent KD of MS2 coat protein
Result: 3.66 nM

Task: # input sequence: CUGCUCGUGUGAGGAUAUGCCGCCGUUUCGGCUGCAGAAGGUGCUACGUUACAUGAGGAUCACCCAUGUCUCUGUUGUUUCGUC [salish99_SSNG1_r04_946] (Eterna round: R96, puzzle: Same State NG 1) ; wanted: its apparent KD of MS2 coat protein
Result: 25.6 nM

Task: # input sequence: UAAAGAUCGCGAGGAUAUCGCGAGGAUCACCCGUGAGAAGGCGCAGAGCCGAGGAUCACCCGGCUGAUCCUGAGGAGGAGGUCA (Eterna round: R96, puzzle: Same State NG 1) ; wanted: its apparent KD of MS2 coat protein
Result: 204 nM
